- System: 966289-007-R4-J1-PDC complex spheroid viability;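 further: spheroids exposed to the agents for seven days before readout; percent viability relative to DMSO vehicle control wells taken as 100%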
- Experiment: Anticancer human tumor 966289-007-R4-J1-PDC patient-derived pancreatic adenocarcinoma cell line growth inhibition [GQUAD]
- Test Settings: second compound 1 µM; first compound 0.1 µM; hits give low values
Measure: viability, T/C (%)

>>> reported_value("O=C(c1cc(Cc2n[nH]c(=O)c3ccccc23)ccc1F)N1CCN(C(=O)C2CC2)CC1 + Cc1cnc(CNC(=O)c2c(=O)c3ccc(N4CCCN(C)CC4)nc3n3c2sc2ccccc23)cn1")
5.03
>>> reported_value("CC(C)n1c(=O)n(C)c2cnc3cc(F)c(-c4ccc(OCCCN5CCCCC5)nc4)cc3c21 + Cc1cnc(CNC(=O)c2c(=O)c3ccc(N4CCCN(C)CC4)nc3n3c2sc2ccccc23)cn1")
4.77
>>> reported_value("C=CC(=O)N1CCN(c2nc(=O)n(-c3c(C)ccnc3C(C)C)c3nc(-c4c(O)cccc4F)c(F)cc23)C(C)C1 (stereo not given) + Cc1[nH]c2ccc(F)cc2c1-c1nc2c3cccnc3c3ncccc3c2[nH]1")
103
>>> reported_value("C#Cc1c(F)ccc2cc(O)cc(-c3ncc4c(N5CC6CCC(C5)N6)nc(OCC56CCCN5CC(F)C6)nc4c3F)c12 (stereo not given) + CN(C)c1ccc(Nc2c3ccc(NC(=O)CCN4CCCC4)cc3nc3cc(NC(=O)CCN4CCCC4)ccc23)cc1")
89.9
>>> reported_value("COc1cc(C2c3cc4c(cc3C(OC3OC5COC(C)OC5C(O)C3O)C3COC(=O)C23)OCO4)cc(OC)c1O (stereo not given) + CN(C)c1ccc(Nc2c3ccc(NC(=O)CCN4CCCC4)cc3nc3cc(NC(=O)CCN4CCCC4)ccc23)cc1")
109
